// reported TGI per item
tested on: OVCAR-4 ovarian; assay: NCI tumour cell line growth inhibition, 48 h

COMPOUND: CC(=O)c1ccc(NC(=O)/C(CC(=O)c2sc(-c3cccnc3)nc2C)=N/NC(N)=O)cc1
TGI: > 100 µM

COMPOUND: COc1ccc(CC2COc3cc(OC)cc(OC)c3C2=O)cc1 (stereo unspecified)
TGI: 51.5 µM

COMPOUND: CC1(c2cccc(C3CC4(CCC3=O)OCCCCO4)c2)OCCO1 (stereo unspecified)
TGI: > 100 µM

COMPOUND: CC(=O)C1C(c2ccccc2)C2(C)OC(=O)C(C#N)C12C (stereo unspecified)
TGI: > 100 µM

COMPOUND: COC(=O)C(=O)CC(=O)CCn1[nH]c(=O)c(Cl)c(Cl)c1=O
TGI: > 100 µM

COMPOUND: Nc1ncnc2c1ncn2C1C=C(CO)C(O)C1O (stereo unspecified)
TGI: > 56.8 µM

Hey, just so you know, these numbers are from PubChem BioAssay (NCI).
